run.parameters: in acetic acid, 348.15 K
result.type: solubility (mole fraction)
One number for each entry.

Looking for the measured solubility (mole fraction) of O=C(O)c1ccc(C(=O)O)o1 , can you help? 0.00082

###

run.parameters: in methyl acetate, 333.15 K
result.type: solubility (mole fraction)
Numbers only.

Looking for the measured solubility (mole fraction) of O=C(O)c1ccc(C(=O)O)o1 , can you help? 0.000285

###

run.parameters: in methyl acetate, 343.15 K
result.type: solubility (mole fraction)
Numbers only.

Looking for the measured solubility (mole fraction) of O=C(O)c1ccc(C(=O)O)o1 , can you help? 0.000464

###

run.parameters: in acetic acid, 363.15 K
result.type: solubility (mole fraction)
One number for each entry.

Looking for the measured solubility (mole fraction) of O=C(O)c1ccc(C(=O)O)o1 , can you help? 0.00134

###

run.parameters: in n-butanol, 353.15 K
result.type: solubility (mole fraction)
Numbers only.

Looking for the measured solubility (mole fraction) of O=C(O)c1ccc(C(=O)O)o1 , can you help? 0.00741

###

run.parameters: in acetic acid, 358.15 K
result.type: solubility (mole fraction)
One number for each entry.

Looking for the measured solubility (mole fraction) of O=C(O)c1ccc(C(=O)O)o1 , can you help? 0.00115

###

run.parameters: in acetonitrile, 363.15 K
result.type: solubility (mole fraction)

Looking for the measured solubility (mole fraction) of O=C(O)c1ccc(C(=O)O)o1 , can you help? 0.000487

###

run.parameters: in methanol, 343.15 K
result.type: solubility (mole fraction)

Looking for the measured solubility (mole fraction) of O=C(O)c1ccc(C(=O)O)o1 , can you help? 0.00894

###

run.parameters: in methyl acetate, 358.15 K
result.type: solubility (mole fraction)
One number for each entry.

Looking for the measured solubility (mole fraction) of O=C(O)c1ccc(C(=O)O)o1 , can you help? 0.000659

###

run.parameters: in n-butanol, 333.15 K
result.type: solubility (mole fraction)
Answers are plain numbers.

Looking for the measured solubility (mole fraction) of O=C(O)c1ccc(C(=O)O)o1 , can you help? 0.00469

###

run.parameters: in isobutanol, 318.15 K
result.type: solubility (mole fraction)

Looking for the measured solubility (mole fraction) of O=C(O)c1ccc(C(=O)O)o1 , can you help? 0.00198

###

run.parameters: in methanol, 313.15 K
result.type: solubility (mole fraction)
One number for each entry.

Looking for the measured solubility (mole fraction) of O=C(O)c1ccc(C(=O)O)o1 , can you help? 0.00428

###

run.parameters: in n-butanol, 348.15 K
result.type: solubility (mole fraction)
Give bare numbers.

Looking for the measured solubility (mole fraction) of O=C(O)c1ccc(C(=O)O)o1 , can you help? 0.00663

###

run.parameters: in methyl acetate, 353.15 K
result.type: solubility (mole fraction)
Numbers only.

Looking for the measured solubility (mole fraction) of O=C(O)c1ccc(C(=O)O)o1 , can you help? 0.00062

###

run.parameters: in MIBK, 328.15 K
result.type: solubility (mole fraction)
One number for each entry.

Looking for the measured solubility (mole fraction) of O=C(O)c1ccc(C(=O)O)o1 , can you help? 0.000296

###

run.parameters: in acetonitrile, 348.15 K
result.type: solubility (mole fraction)

Looking for the measured solubility (mole fraction) of O=C(O)c1ccc(C(=O)O)o1 , can you help? 0.000278

###

run.parameters: in isobutanol, 353.15 K
result.type: solubility (mole fraction)
Numbers only.

Looking for the measured solubility (mole fraction) of O=C(O)c1ccc(C(=O)O)o1 , can you help? 0.00548
